This collection of values is drawn from patent US9833497B2.

System: Serratia marcescens
Test: MIC against Gram-negative bacteria: Serratia marcescens
Type: cell-based
Conditions: S. marcescens; 10 h cultivation at 37° C.; 5×10^5 CFU/mL
Protocol: 1. Gram-negative bacteria, such as E. coli BL21, Pseudomonas aeruginosa, Klebsiella pneumonia, Enterobacter cloacae, Aeromonas hydrophila, Citrobacter diversus, Moraxella catarrhalis, Proteus mirabilis, Proteus vulgaris, Serratia marcescens, etc were streaked on solid LB medium and cultured respectively. Then, typical clones were picked, inoculated into common liquid LB medium respectively, and cultured at 37° C. with shaking at 185 rpm until the McFarland specific turbidity was 0.5. […]
parameterMeasured: MIC (μg/mL) S. marcescens
Answer format: value, then unit.

Any idea what its MIC (μg/mL) S. marcescens is? The substance is PRT822 (VRAGCRHSGGCLNGGLCDPHTGRCLCPAGWTGDKCQ; listed as Homo sapiens)
12.5 µg/mL

Any idea what its MIC (μg/mL) S. marcescens is? The substance is PRT226 (DIDECESGAHQCSEAQTCVNFHGGYRCVDTNRCVEPYIQVSENRCL; listed as Homo sapiens)
12.5 µg/mL

Any idea what its MIC (μg/mL) S. marcescens is? The substance is PRT782 (AERCDCSHADGCHPTTGHCRCLPGWSGVHCD; listed as Homo sapiens)
50 µg/mL

Any idea what its MIC (μg/mL) S. marcescens is? The substance is PRT791 (SQECQCHNGGTCDAATGQCHCSPGYTGERCQ; listed as Homo sapiens)
12.5 µg/mL

Any idea what its MIC (μg/mL) S. marcescens is? The substance is PRT821 (DVDECRTHNGGCQHRCVNTPGSYLCECKPGFRLHTDSRTCL; listed as Homo sapiens)
50 µg/mL

Any idea what its MIC (μg/mL) S. marcescens is? The substance is PRT259 (GGCHTDALCSYVGPGQSRCTCKLGFAGDGYQC; listed as Homo sapiens)
25 µg/mL

Any idea what its MIC (μg/mL) S. marcescens is? The substance is PRT201 (NMSSCPLDSKGKVCSGHGVCSNEATCICDFTWAGTDCS; listed as Homo sapiens)
25 µg/mL

Any idea what its MIC (μg/mL) S. marcescens is? The substance is PRT217 (DIDECTIPPYCHQRCVNTPGSFYCQCSPGFQLAANNYTCV; listed as Homo sapiens)
50 µg/mL

Any idea what its MIC (μg/mL) S. marcescens is? The substance is PRT839 (DVDECRLGLARCHPRATCLNTPLSYECHCQRGYQGDGISHCN; listed as Homo sapiens)
50 µg/mL

Any idea what its MIC (μg/mL) S. marcescens is? The substance is PRT854 (TCSMANCQYGCDVVKGQIRCQCPSPGLQLAPDGRTCV; listed as Homo sapiens)
12.5 µg/mL

Any idea what its MIC (μg/mL) S. marcescens is? The substance is PRT183 (ECIPHNGCRHGTCSTPWQCTCDEGWGGLFCD; listed as Homo sapiens)
12.5 µg/mL
